Where do these numbers come from? They come from ChEMBL document CHEMBL3580653.

- measurement target: C-X-C chemokine receptor type 4 (Homo sapiens)
- Sequence (P61073 whole entry): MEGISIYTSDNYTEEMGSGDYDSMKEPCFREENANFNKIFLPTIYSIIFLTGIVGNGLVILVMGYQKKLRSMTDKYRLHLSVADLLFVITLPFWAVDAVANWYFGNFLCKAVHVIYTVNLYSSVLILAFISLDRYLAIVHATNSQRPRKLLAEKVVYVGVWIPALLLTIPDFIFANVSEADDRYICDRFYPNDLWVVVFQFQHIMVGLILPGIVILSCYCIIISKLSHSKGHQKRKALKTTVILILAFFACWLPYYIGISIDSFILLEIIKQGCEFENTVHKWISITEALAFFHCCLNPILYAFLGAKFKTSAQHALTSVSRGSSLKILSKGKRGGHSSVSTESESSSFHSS
- method notes: Inhibition of [125I]SDF-1alpha binding to CXCR4 (unknown origin) expressed in HEK293 cell membranes incubated for 1 hr by radioligand displacement assay
pIC50: −log10 of the molar value. Where a SMILES comes first, the peptide text is derived from it. [ ]: non-standard residue; d: D form. 2Nal = N[C@@H](Cc1ccc2ccccc2c1)C(=O)O
measure name: pIC50

- compound: "CN1C(=O)[C@H](CCCNC(=N)N)NC(=O)[C@H](CCCNC(=N)N)NC(=O)[C@@H](Cc2ccc(O)cc2)NC(=O)[C@@H]2CCCN2C(=O)[C@H]1Cc1ccc2ccccc2c1"
  measurement target: "C-X-C chemokine receptor type 4 (Homo sapiens)"
  test value: "< 4.52"
- compound: "C[C@H]1NC(=O)[C@@H]2CCCN2C(=O)[C@H](Cc2ccc3ccccc3c2)NC(=O)[C@H](CCCNC(=N)N)N(C)C(=O)[C@H](CCCNC(=N)N)NC1=O"
  measurement target: "C-X-C chemokine receptor type 4 (Homo sapiens)"
  test value: "< 4.52"
- compound: "C[C@@H]1NC(=O)[C@H](Cc2ccc3ccccc3c2)NC(=O)[C@H](CCCNC(=N)N)NC(=O)[C@H](CCCNC(=N)N)NC(=O)[C@@H](Cc2ccc(O)cc2)NC1=O (cyclo([2Nal]A[dY]RR))"
  measurement target: "C-X-C chemokine receptor type 4 (Homo sapiens)"
  test value: 4.64

----------
Quick list: EC50 per entry.
- measurement target: Atypical chemokine receptor 3 (Homo sapiens, UniProt P25106, D179N)
- Sequence (P25106 whole entry D179N): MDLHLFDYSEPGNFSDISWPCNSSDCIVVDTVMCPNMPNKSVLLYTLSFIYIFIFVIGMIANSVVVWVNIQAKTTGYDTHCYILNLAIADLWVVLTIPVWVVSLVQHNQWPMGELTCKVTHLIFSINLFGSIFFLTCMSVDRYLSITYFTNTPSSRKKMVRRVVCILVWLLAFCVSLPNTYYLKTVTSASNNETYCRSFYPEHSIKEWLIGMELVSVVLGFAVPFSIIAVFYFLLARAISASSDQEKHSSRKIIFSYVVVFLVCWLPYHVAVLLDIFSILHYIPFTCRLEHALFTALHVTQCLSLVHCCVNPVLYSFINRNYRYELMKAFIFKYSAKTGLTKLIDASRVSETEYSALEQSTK
- method notes: Agonist activity at CXCR7 D179N mutant (unknown origin) expressed in HEK293E cells co-transfected with receptor-eYFP construct and beta-arrestin2-Rluc assessed as induction of receptor-mediated beta-arrestin recruitment by BRET assay
- Type: cell-based
- setup conditions: read-out: EC50

- line notation: "CN1C(=O)[C@H](CCCNC(=N)N)NC(=O)[C@@H](Cc2ccc(O)cc2)NC(=O)[C@@H]2CCCN2C(=O)[C@H](Cc2ccc3ccccc3c2)NC(=O)[C@@H]1CCCNC(=N)N"
  measurement target: "Atypical chemokine receptor 3 (Homo sapiens, UniProt P25106, D179N)"
  EC50 [µM]: 2
- line notation: "N=C(N)NCCC[C@@H]1NC(=O)[C@H](CCCNC(=N)N)NC(=O)[C@@H](Cc2ccc(O)cc2)NC(=O)[C@@H]2CCCN2C(=O)[C@H](Cc2ccc3ccccc3c2)NC1=O"
  measurement target: "Atypical chemokine receptor 3 (Homo sapiens, UniProt P25106, D179N)"
  EC50 [µM]: 3.5

----------
- measurement target: UniProt:P25106
- method notes: Inhibition of [125I]SDF-1alpha binding to CXCR7 (unknown origin) expressed in CHO cell membranes incubated for 1 hr by radioligand displacement assay
Where a SMILES comes first, the peptide text is derived from it. [ ]: non-standard residue; d: D form. 2Nal = N[C@@H](Cc1ccc2ccccc2c1)C(=O)O; βAla = NCCC(=O)O

- molecule: "CN1C(=O)[C@@H]2CCCN2C(=O)[C@H](Cc2ccc3ccccc3c2)NC(=O)[C@H](CCCNC(=N)N)NC(=O)[C@H](CCCNC(=N)N)NC(=O)[C@@H]1Cc1ccc(O)cc1"
  measurement target: "UniProt:P25106"
  endpoint unit: "µM"
  bound type: "="
  IC50: 23
- molecule: "N=C(N)NCCC[C@@H]1NC(=O)[C@H](CCCNC(=N)N)NC(=O)[C@@H](Cc2ccc(O)cc2)NC(=O)CCNC(=O)[C@H](Cc2ccc3ccccc3c2)NC1=O (cyclo([2Nal][βAla][dY]RR))"
  measurement target: "UniProt:P25106"
  endpoint unit: "µM"
  bound type: ">"
  IC50: 30
- molecule: "CN1C(=O)[C@@H]2CCCN2C(=O)[C@H](Cc2ccc3ccccc3c2)NC(=O)[C@H](CCCNC(=N)N)NC(=O)[C@H](CCCNC(=N)N)NC(=O)[C@H]1Cc1ccc(O)cc1"
  measurement target: "UniProt:P25106"
  endpoint unit: "µM"
  bound type: "="
  IC50: 18
- molecule: "CC[C@H](C)[C@@H]1NC(=O)[C@H]([C@@H](C)O)NC(=O)[C@H]2CCCN2C(=O)[C@H](Cc2ccc3ccccc3c2)NC(=O)[C@H](CCCNC(=N)N)NC(=O)[C@@H](CCCNC(=N)N)NC1=O (cyclo([2Nal][dP]TI[dR]R))"
  measurement target: "UniProt:P25106"
  endpoint unit: "µM"
  bound type: "="
  IC50: 1.7
- molecule: "N=C(N)NCCC[C@@H]1NC(=O)[C@H](CCCNC(=N)N)NC(=O)[C@@H](Cc2ccc(O)cc2)NC(=O)[C@@H]2CCCN2C(=O)[C@H](Cc2ccc3ccccc3c2)NC1=O"
  measurement target: "UniProt:P25106"
  endpoint unit: "µM"
  bound type: "="
  IC50: 1.5

----------
Catalogue of pIC50 readings, one per entry.
- measurement target: C-X-C chemokine receptor type 4 (Homo sapiens)
- method notes: Inhibition of [125I]SDF-1alpha binding to CXCR4 (unknown origin) expressed in HEK293 cell membranes incubated for 1 hr by radioligand displacement assay
pIC50: −log10 of the molar value. Where a SMILES comes first, the peptide text is derived from it. [ ]: non-standard residue; d: D form. 2Nal = N[C@@H](Cc1ccc2ccccc2c1)C(=O)O; dPip = O=C(O)[C@H]1CCCCN1; βAla = NCCC(=O)O

- compound: "N=C(N)NCCC[C@@H]1NC(=O)[C@H](CCCNC(=N)N)NC(=O)[C@@H](Cc2ccc(O)cc2)NC(=O)[C@@H]2CCCN2C(=O)[C@@H](Cc2ccc3ccccc3c2)NC1=O"
  pIC50: "< 4.52"
- compound: "CN1C(=O)[C@H](CCCNC(=N)N)NC(=O)[C@@H](Cc2ccc(O)cc2)NC(=O)[C@@H]2CCCN2C(=O)[C@H](Cc2ccc3ccccc3c2)NC(=O)[C@@H]1CCCNC(=N)N"
  pIC50: "< 4.52"
- compound: "CN1C(=O)[C@@H]2CCCN2C(=O)[C@H](Cc2ccc3ccccc3c2)NC(=O)[C@H](CCCNC(=N)N)NC(=O)[C@H](CCCNC(=N)N)NC(=O)[C@H]1Cc1ccc(O)cc1"
  pIC50: "< 4.52"
- compound: "CN1C(=O)[C@@H](Cc2ccc(O)cc2)NC(=O)[C@@H]2CCCN2C(=O)[C@H](Cc2ccc3ccccc3c2)NC(=O)[C@H](CCCNC(=N)N)NC(=O)[C@H]1CCCNC(=N)N"
  pIC50: "< 4.52"
- compound: "N=C(N)NCCC[C@@H]1NC(=O)[C@H](CCCNC(=N)N)NC(=O)[C@@H](Cc2ccc(O)cc2)NC(=O)[C@H]2CCCCN2C(=O)[C@H](Cc2ccc3ccccc3c2)NC1=O (cyclo([2Nal][dPip][dY]RR))"
  pIC50: "< 4.52"
- compound: "C[C@@H]1C(=O)N[C@H](Cc2ccc(O)cc2)C(=O)N[C@@H](CCCNC(=N)N)C(=O)N[C@@H](CCCNC(=N)N)C(=O)N[C@@H](Cc2ccc3ccccc3c2)C(=O)N1C"
  pIC50: 5.34
- compound: "CN1C(=O)[C@H](CCCNC(=N)N)NC(=O)[C@@H](Cc2ccc(O)cc2)NC(=O)[C@@H]2CCCN2C(=O)[C@H](Cc2ccc3ccccc3c2)NC(=O)[C@H]1CCCNC(=N)N"
  pIC50: "< 4.52"
- compound: "N=C(N)NCCC[C@@H]1NC(=O)[C@H](Cc2ccc(O)cc2)NC(=O)[C@@H]2CCCN2C(=O)[C@H](Cc2ccc3ccccc3c2)NC(=O)[C@H](CCCNC(=N)N)NC1=O"
  pIC50: "< 4.52"
- compound: "N=C(N)NCCC[C@@H]1NC(=O)[C@@H](Cc2ccc(O)cc2)NC(=O)[C@@H]2CCCN2C(=O)[C@H](Cc2ccc3ccccc3c2)NC(=O)[C@@H](CCCNC(=N)N)NC1=O"
  pIC50: "< 4.52"
- compound: "N=C(N)NCCC[C@@H]1NC(=O)[C@H](CCCNC(=N)N)NC(=O)[C@@H](Cc2ccc(O)cc2)NC(=O)[C@@H]2CCCN2C(=O)[C@H](Cc2ccc3ccccc3c2)NC1=O"
  pIC50: "< 4.52"
- compound: "N=C(N)NCCC[C@@H]1NC(=O)[C@H](CCCNC(=N)N)NC(=O)[C@@H](Cc2ccc(O)cc2)NC(=O)CCNC(=O)[C@H](Cc2ccc3ccccc3c2)NC1=O (cyclo([2Nal][βAla][dY]RR))"
  pIC50: 5.22

----------
- measurement target: Atypical chemokine receptor 3 (Homo sapiens)
- method notes: Agonist activity at CXCR7 (unknown origin) expressed in HEK293E cells co-transfected with receptor-eYFP construct and beta-arrestin2-Rluc assessed as induction of receptor-mediated beta-arrestin recruitment by BRET assay
- Assay type: cell-based
- setup conditions: read-out: EC50
Where a SMILES comes first, the peptide text is derived from it. [ ]: non-standard residue; d: D form. 2Nal = N[C@@H](Cc1ccc2ccccc2c1)C(=O)O

- molecule: "CC[C@H](C)[C@@H]1NC(=O)[C@H]([C@@H](C)O)NC(=O)[C@H]2CCCN2C(=O)[C@H](Cc2ccc3ccccc3c2)NC(=O)[C@H](CCCNC(=N)N)NC(=O)[C@@H](CCCNC(=N)N)NC1=O (cyclo([2Nal][dP]TI[dR]R))"
  EC50 / nM: 36
- molecule: "N=C(N)NCCC[C@@H]1NC(=O)[C@H](CCCNC(=N)N)NC(=O)[C@@H](Cc2ccc(O)cc2)NC(=O)CNC(=O)[C@H](Cc2ccc3ccccc3c2)NC1=O"
  EC50 / nM: 2400
- molecule: "N=C(N)NCCC[C@@H]1NC(=O)[C@H](CCCNC(=N)N)NC(=O)[C@@H](Cc2ccc(O)cc2)NC(=O)[C@@H]2CCCN2C(=O)[C@H](Cc2ccc3ccccc3c2)NC1=O"
  EC50 / nM: 74
- molecule: "CN1C(=O)[C@H](CCCNC(=N)N)NC(=O)[C@@H](Cc2ccc(O)cc2)NC(=O)[C@@H]2CCCN2C(=O)[C@H](Cc2ccc3ccccc3c2)NC(=O)[C@@H]1CCCNC(=N)N"
  EC50 / nM: 95
